target: human Fatty Acid Synthase (Homo sapiens); construct: made in house; test: Human FAS enzyme assay (decrease in NADPH fluorescence); assay type: biochemical; conditions: % inhibition at a concentration of 100 μmolar
Sequence (P49327 whole entry): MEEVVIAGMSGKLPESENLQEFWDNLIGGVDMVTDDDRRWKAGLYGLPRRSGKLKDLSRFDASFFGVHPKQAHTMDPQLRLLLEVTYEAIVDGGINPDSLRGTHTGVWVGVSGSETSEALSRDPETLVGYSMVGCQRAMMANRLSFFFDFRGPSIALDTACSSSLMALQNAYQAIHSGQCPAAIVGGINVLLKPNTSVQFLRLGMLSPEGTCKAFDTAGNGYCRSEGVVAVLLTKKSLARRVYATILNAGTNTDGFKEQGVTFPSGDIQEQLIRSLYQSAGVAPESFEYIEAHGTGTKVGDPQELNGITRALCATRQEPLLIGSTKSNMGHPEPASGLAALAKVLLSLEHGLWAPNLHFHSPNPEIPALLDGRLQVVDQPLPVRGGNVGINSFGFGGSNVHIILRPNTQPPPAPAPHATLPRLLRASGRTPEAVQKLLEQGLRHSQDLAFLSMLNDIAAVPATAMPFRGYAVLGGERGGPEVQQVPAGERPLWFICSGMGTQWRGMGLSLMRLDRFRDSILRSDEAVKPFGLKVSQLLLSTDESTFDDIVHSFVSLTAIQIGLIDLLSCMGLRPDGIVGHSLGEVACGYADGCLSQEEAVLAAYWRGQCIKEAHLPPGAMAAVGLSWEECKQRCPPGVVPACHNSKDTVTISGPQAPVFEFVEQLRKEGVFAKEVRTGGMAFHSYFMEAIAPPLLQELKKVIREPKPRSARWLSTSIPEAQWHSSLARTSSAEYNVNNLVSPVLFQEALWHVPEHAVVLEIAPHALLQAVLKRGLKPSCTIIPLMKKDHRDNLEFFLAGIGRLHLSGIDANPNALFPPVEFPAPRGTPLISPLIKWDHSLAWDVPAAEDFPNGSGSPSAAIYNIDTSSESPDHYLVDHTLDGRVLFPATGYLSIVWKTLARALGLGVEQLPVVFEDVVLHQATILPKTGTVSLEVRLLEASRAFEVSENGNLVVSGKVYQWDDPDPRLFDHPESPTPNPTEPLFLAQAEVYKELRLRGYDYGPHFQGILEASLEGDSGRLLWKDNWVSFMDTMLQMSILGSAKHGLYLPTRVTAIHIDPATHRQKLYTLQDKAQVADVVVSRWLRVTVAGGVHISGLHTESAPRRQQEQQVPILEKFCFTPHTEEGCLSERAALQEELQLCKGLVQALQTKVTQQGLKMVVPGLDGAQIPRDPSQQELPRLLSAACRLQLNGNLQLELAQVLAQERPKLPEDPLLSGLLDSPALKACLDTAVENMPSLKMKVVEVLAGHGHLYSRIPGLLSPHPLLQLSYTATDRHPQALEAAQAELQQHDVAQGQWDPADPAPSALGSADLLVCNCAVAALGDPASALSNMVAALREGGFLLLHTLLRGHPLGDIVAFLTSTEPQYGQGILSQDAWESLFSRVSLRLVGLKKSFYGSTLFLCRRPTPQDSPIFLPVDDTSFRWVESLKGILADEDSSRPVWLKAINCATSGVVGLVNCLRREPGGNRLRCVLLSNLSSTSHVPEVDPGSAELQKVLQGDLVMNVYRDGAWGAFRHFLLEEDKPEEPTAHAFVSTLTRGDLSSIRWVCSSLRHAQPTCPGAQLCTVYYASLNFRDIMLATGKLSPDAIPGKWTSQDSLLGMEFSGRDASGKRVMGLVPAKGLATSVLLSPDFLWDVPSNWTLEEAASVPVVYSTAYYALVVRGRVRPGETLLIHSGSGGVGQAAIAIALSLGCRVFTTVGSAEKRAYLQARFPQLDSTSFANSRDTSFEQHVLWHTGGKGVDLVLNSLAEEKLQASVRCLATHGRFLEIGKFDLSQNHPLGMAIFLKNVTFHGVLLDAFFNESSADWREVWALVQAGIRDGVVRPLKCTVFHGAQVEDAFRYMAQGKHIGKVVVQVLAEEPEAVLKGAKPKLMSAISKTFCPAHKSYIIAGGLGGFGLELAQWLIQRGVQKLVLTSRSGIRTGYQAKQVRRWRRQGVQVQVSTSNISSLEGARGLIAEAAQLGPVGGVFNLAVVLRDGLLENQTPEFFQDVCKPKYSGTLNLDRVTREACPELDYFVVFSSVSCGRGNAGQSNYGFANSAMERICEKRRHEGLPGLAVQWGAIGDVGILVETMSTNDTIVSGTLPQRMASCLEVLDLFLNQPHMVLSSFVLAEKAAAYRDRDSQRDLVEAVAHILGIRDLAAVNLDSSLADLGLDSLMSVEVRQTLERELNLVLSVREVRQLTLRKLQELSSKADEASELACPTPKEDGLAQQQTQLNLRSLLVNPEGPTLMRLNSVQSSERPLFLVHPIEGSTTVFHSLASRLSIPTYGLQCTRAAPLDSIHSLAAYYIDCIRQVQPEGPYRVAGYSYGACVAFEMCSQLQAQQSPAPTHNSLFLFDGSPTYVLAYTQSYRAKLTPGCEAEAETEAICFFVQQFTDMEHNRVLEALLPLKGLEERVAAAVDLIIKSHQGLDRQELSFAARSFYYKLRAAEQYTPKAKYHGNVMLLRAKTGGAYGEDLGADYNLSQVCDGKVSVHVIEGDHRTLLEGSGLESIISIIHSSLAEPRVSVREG
readout: inhibition at 100 µM (%)

molecule	system name	readout	unit abbrev	measured result
Cc1ccc(C(=O)N2CCC(c3ccc(C#N)cc3)CC2)cc1NC(=O)NCC(C)(C)NC(=O)C(C)(C)C [Example 205]	human Fatty Acid Synthase (Homo sapiens)	inhibition at 100 µM	%	88.2
CNC(=O)CCNC(=O)Nc1cc(C(=O)N2CCC(c3ccc(C#N)cc3)CC2)ccc1C [Example 179]	human Fatty Acid Synthase (Homo sapiens)	inhibition at 100 µM	%	89.2
Cc1ccc(C(=O)N2CCC(c3ccc(C#N)cc3)CC2)cc1NC(=O)NCCCN [Example 207]	human Fatty Acid Synthase (Homo sapiens)	inhibition at 100 µM	%	89.7
